- TEST METHOD NOTES: yeast growth modulation, basal conditions, primary screen, YJM789 clinical isolate, OD600, 24 h (AID 1089);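 further: growth of clinical yeast isolate S. cerevisiae YJM 789 seeded 1000 cells per well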
- MEASUREMENT CONTEXT: S. cerevisiae YJM789 growth, higher = more signal, called active from +8 up or from −8 down
Activity calls are given as the source filed them.
MEASURED METRIC: z-score

INSERT INTO results (compound, measured_metric, measured) VALUES
  ('CC1(C)OB(/C=C\CC(OC(=O)c2ccncc2)c2ccccc2)OC1(C)C (centres undefined)', 'z-score', '-1.7 (inactive)'),
  ('COc1c(C)cc(-c2nc(-c3ccccc3)c3c(c2C)CO[Si]3(C(C)C)C(C)C)cc1C', 'z-score', '0.687 (inactive)'),
  ('CCCCCCCCCCC(O)C1C=CC2C(=O)N(C)C(=O)C2N1Nc1ccccc1 (centres undefined)', 'z-score', '0.875 (inactive)'),
  ('CC(C)(C)OC(=O)CC[C@]1(C(=O)N2CCOCC2)COC(c2ccc(OCCCO)cc2)=N1', 'z-score', '1.04 (inactive)'),
  ('COc1ccc([Si](C)(C)[C@@H]2[C@@H](CC(=O)N(CCO)Cc3ccccc3)O[C@]3(C(=O)N(Cc4cccc(I)c4)c4ccccc43)[C@H]2C)cc1', 'z-score', '-0.0171 (inactive)'),
  ('C=C(CCCC)C(=O)CC[C@@H](OC(C)=O)c1ccc(OCCO)cc1', 'z-score', '-1.58 (inactive)'),
  ('C[C@]12C(=O)N(CCO)[C@@H]3C(=O)N(c4ccc(Cl)cc4)CC=CC31O[C@@H]1/C=C\CCCOC(=O)C12 (some centres undefined)', 'z-score', '-0.174 (inactive)'),
  ('COc1cc2c(cc1OC)CN(C(=O)[C@@H]1[C@H]3C(=O)O[C@H](c4ccccc4)[C@H](c4ccccc4)N3[C@H](c3ccc(O)cc3)[C@@]13C(=O)Nc1ccc(C#CC4=CCCCC4)cc13)CC2', 'z-score', '1.63 (inactive)'),
  ('C=CCC(OC(C)=O)[C@@H]1[C@@H](N(Cc2ccc(-c3ccccc3)cc2)C(=O)Cc2ccc(OC)cc2)c2cc(OCCCO)ccc2N1C(=O)c1ccc2ccccc2c1 (some centres undefined)', 'z-score', '-0.675 (inactive)'),
  ('C=CC[C@]1(C(=O)NCC(O)CO)N=C(c2ccc(OCCCO)cc2)O[C@H]1c1ccccc1CN=[N+]=[N-] (some centres undefined)', 'z-score', '-0.0604 (inactive)'),
  ('COCCOC(=O)N1C(=O)[C@@]2(c3cc(C#CCC(C(=O)OC)C(=O)OC)ccc31)[C@H](C(=O)N1CCc3cc(OC)c(OC)cc3C1)[C@H]1C(=O)O[C@H](c3ccccc3)[C@H](c3ccccc3)N1[C@@H]2c1ccccc1OCCO', 'z-score', '1.32 (inactive)'),
  ('C=CCNC(=O)[C@@H]1[C@H]2C(=O)O[C@H](c3ccccc3)[C@H](c3ccccc3)N2[C@H](c2ccc(OCCO)cc2)[C@@]12C(=O)Nc1ccc(C#CC3=CCCCC3)cc12', 'z-score', '1.78 (inactive)'),
  ('C#CCN(C(=O)OC(C)(C)C)[C@H](CO)c1ccccc1', 'z-score', '-0.365 (inactive)'),
  ('CCOC(=O)C[C@H]1[C@H](OC(=O)c2cc3ccccc3oc2=O)[C@@H](NC(=O)Cc2ccc(OC)cc2)c2cc(OCCCO)ccc2N1C(=O)Cc1ccc(OC)cc1', 'z-score', '-0.903 (inactive)');

###

- Tested on: XIP peptide (Xip251-270)
- TEST METHOD NOTES: small-molecule binders of XIP peptide, primary screen, biochemical, small-molecule microarray, fluorescence 635/667 nm, 0.5 µg/mL protein (AID 1183)
- MEASUREMENT CONTEXT: small-molecule microarray binding, fluorescence 635 nm; higher = more signal
Classification field: YES = composite z-score at or over 0.4; NO = composite z-score under 0.4.

INSERT INTO results (molecule, label_value) VALUES
  ('COCCOC(=O)N1C(=O)[C@@]2(c3cc(C#CCCO)ccc31)[C@H](C(=O)N1CCN(c3ncccn3)CC1)[C@H]1C(=O)O[C@H](c3ccccc3)[C@H](c3ccccc3)N1[C@@H]2c1ccc(OCCO)cc1', 'YES'),
  ('C=CCNC(=O)[C@@H]1[C@H]2C(=O)O[C@H](c3ccccc3)[C@H](c3ccccc3)N2[C@H](c2ccc(O)cc2)[C@@]12C(=O)N(C(=O)OCCOC)c1ccc(C#CCC(C(=O)OC)C(=O)OC)cc12', 'YES'),
  ('CCOC(=O)C[C@H]1[C@H](OC(=O)c2ccc(-c3ccccc3)cc2)[C@@H](NC(=O)c2ccc(-c3ccccc3)cc2)c2cc(OCCCO)ccc2N1C(=O)c1ccccc1', 'YES'),
  ('COCCOC(=O)N1C(=O)[C@@]2(c3cc(C#CCCO)ccc31)[C@H](c1ccc(O)cc1)N1[C@H](c3ccccc3)[C@H](c3ccccc3)OC(=O)[C@H]1[C@@H]2C(=O)NC[C@H](O)c1ccccc1', 'YES'),
  ('COc1ccc([Si](C)(C)[C@@H]2[C@@H](CC(=O)N(CCO)Cc3ccccc3)O[C@]3(C(=O)N(Cc4cccc(I)c4)c4ccccc43)[C@H]2C)cc1', 'NO'),
  ('C=C(COC)C(=O)CC[C@@H](OC(=O)c1ccccc1-c1ccccc1C(=O)O)c1ccccc1OCCO', 'NO'),
  ('CN1C(=O)C2CC=C(C3=CCO[C@@H]3[C@H]3CCCN3S(=O)(=O)c3ccccc3[N+](=O)[O-])CC2C1=O (stereo partly drawn)', 'YES'),
  ('O=C1c2ccccc2[C@@]2(Cc3ccccc3N(CC(F)(F)F)C2=O)[C@H](c2ccc(CO)cc2)N1Cc1ccccc1', 'NO'),
  ('CC(C)(C)OC(=O)CC[C@@]1(C(N)=O)N=C(c2ccc(OCCCO)cc2)O[C@@H]1c1ccccc1CN=[N+]=[N-]', 'NO'),
  ('CCCCN1CC=CC23O[C@@H]4/C=C\CCC(C)OC(=O)C4[C@H]2C(=O)N(CCO)[C@@H]3C1=O (stereo partly drawn)', 'NO'),
  ('O=C1OCCC/C=C\[C@H]2OC34C=CCN(Cc5ccccc5)C(=O)[C@H]3N(CCO)C(=O)[C@@H]4C12 (stereo partly drawn)', 'NO'),
  ('O=C(O)C1=CC[C@H]2C(=O)N(c3ccccc3)C(=O)[C@@H]12', 'YES'),
  ('C=CCOC(=O)[C@H]1[C@@H]2C(=O)O[C@@H](c3ccccc3)[C@@H](c3ccccc3)N2[C@@H](c2ccc(OCCOC(=O)[C@H]3C[C@H]4C(=O)NCC(=O)N4[C@H]3c3ccc(O)cc3)cc2)[C@]12C(=O)Nc1ccccc12', 'YES');

###

- System: Plasmodium falciparum Sir2 (PF13_0152, Sir2A)
- TEST METHOD NOTES: pfSir2 binders on small-molecule microarrays, primary screen, biochemical, small-molecule microarray, 635 nm fluorescence (AID 1098);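 further: score merges spot fluorescence intensity with its signal-to-noise ratio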
- MEASUREMENT CONTEXT: small-molecule microarray binding, fluorescence 635 nm; higher = more signal
MEASURED METRIC: composite z-score

INSERT INTO measurements (compound, target_under_test, measured_metric, measured) VALUES
  ('COC(=O)c1c2oc(c1C(=O)OC)C(=O)N[C@H](Cc1ccccc1)Cn1cc(nn1)C1(CCCCC1)NC(=O)N[C@H](CO)CC2', 'Plasmodium falciparum Sir2 (PF13_0152, Sir2A)', 'composite z-score', 0.569),
  ('CC1C2C(CCCO)=CC(C3C(=O)N(C(N)=O)C(=O)C23)N1Cc1cccc(OC(F)(F)F)c1 (centres undefined)', 'Plasmodium falciparum Sir2 (PF13_0152, Sir2A)', 'composite z-score', 0.174),
  ('CCCN1C(=O)[C@@]2(c3ccc([N+](=O)[O-])cc3)CC(=O)N(C3CCCCC3)[C@@H]2c2ccc(CO)cc21', 'Plasmodium falciparum Sir2 (PF13_0152, Sir2A)', 'composite z-score', 0.219),
  ('COC(=O)[C@@]1(Cc2ccc(F)cc2)[C@H]2c3cc(C(=O)N4CCCC4)n(Cc4ccc(C(F)(F)F)nc4)c3C[C@H]2CN1C(=O)c1ccccc1', 'Plasmodium falciparum Sir2 (PF13_0152, Sir2A)', 'composite z-score', 0.513),
  ('Cc1ccc(S[C@]2(C(=O)NC3CC3)CC(=O)N(C3Cc4ccccc4C3)[C@@H]2c2ccc(CO)cc2I)cc1', 'Plasmodium falciparum Sir2 (PF13_0152, Sir2A)', 'composite z-score', 0.911),
  ('COCCOC(=O)N1C(=O)[C@@]2(c3cc(C#CCC(C(=O)OC)C(=O)OC)ccc31)[C@H](c1ccc(O)cc1)N1[C@H](c3ccccc3)[C@H](c3ccccc3)OC(=O)[C@H]1[C@@H]2C(=O)N1CCc2cc(OC)c(OC)cc2C1', 'Plasmodium falciparum Sir2 (PF13_0152, Sir2A)', 'composite z-score', 1.21),
  ('COCCOC(=O)N1C(=O)[C@@]2(c3cc(C#CCCO)ccc31)[C@H](c1ccc(O)cc1)N1[C@H](c3ccccc3)[C@H](c3ccccc3)OC(=O)[C@H]1[C@@H]2C(=O)NC[C@H](O)c1ccccc1', 'Plasmodium falciparum Sir2 (PF13_0152, Sir2A)', 'composite z-score', 1.16),
  ('C=C(CCCC)/C(=C/C[C@@H](OC(C)=O)c1cccc(OCCO)c1)c1cc(C(=O)OC)ccc1OC', 'Plasmodium falciparum Sir2 (PF13_0152, Sir2A)', 'composite z-score', 1.31),
  ('CCCCC(=C=CC[C@H](O)c1ccccc1OCCO)CCO', 'Plasmodium falciparum Sir2 (PF13_0152, Sir2A)', 'composite z-score', 0.653),
  ('C=C[C@H](C)[C@@H](OC(=O)Nc1ccc(SC)cc1)c1ccc(OCCO)cc1', 'Plasmodium falciparum Sir2 (PF13_0152, Sir2A)', 'composite z-score', 1.11),
  ('CCOC(=O)C=C1C[C@@H](c2cccc([N+](=O)[O-])c2)O[C@@H](c2cccc([N+](=O)[O-])c2)O1', 'Plasmodium falciparum Sir2 (PF13_0152, Sir2A)', 'composite z-score', 0.765),
  ('CC(C)[Si](C#Cc1ccccc1)(O[C@H](c1ccccc1)c1cn(Cc2ccccc2)nn1)C(C)C', 'Plasmodium falciparum Sir2 (PF13_0152, Sir2A)', 'composite z-score', 1.56),
  ('COc1ccc(C#Cc2ccc3c(c2)[C@]2(C(=O)N3)[C@H](c3ccccc3OCCO)N3[C@H](c4ccccc4)[C@H](c4ccccc4)OC(=O)[C@H]3[C@@H]2C(=O)NC[C@H](O)c2ccccc2)cc1', 'Plasmodium falciparum Sir2 (PF13_0152, Sir2A)', 'composite z-score', 1.3),
  ('COc1ccc([Si](C)(C)[C@@H]2[C@@H](CC(=O)N(CCO)Cc3ccccc3)O[C@]3(C(=O)N(Cc4cccc(I)c4)c4ccccc43)[C@H]2C)cc1', 'Plasmodium falciparum Sir2 (PF13_0152, Sir2A)', 'composite z-score', 0.824);
